Tested on: MT4
Experiment: Inhibition of HIV-1 induced cytopathicity against MT-4 cell
Format: functional, cell-based
Details: Homo sapiens
quantityKind: pEC50
pEC50 field: float, defined as -log10 of concentration (mol/L).

| molecule | pEC50 |
| --- | --- |
| Cc1cn([C@@H]2O[C@H](CO[Si](C)(C)C(C)(C)C)[C@@]3(OS(=O)(=O)C=C3N)[C@H]2O[Si](C)(C)C(C)(C)C)c(=O)n(CC#Cc2cn([C@@H]3C=C[C@H](CO)O3)c(=O)[nH]c2=O)c1=O | 6.74 |
| Cc1cn([C@@H]2CC(N=[N+]=[N-])[C@H](CO)O2)c(=O)n(CC#CCn2c(=O)c(C)cn([C@@H]3O[C@H](CO[Si](C)(C)C(C)(C)C)[C@@]4(OS(=O)(=O)C=C4N)[C@H]3O[Si](C)(C)C(C)(C)C)c2=O)c1=O (stereo partly drawn) | 6.00 |

Continue with the molecule presented below.
Q: Name the recorded pEC50 of the item COC(=O)C(C)NP(=O)(OC[C@@H]1O[C@H](n2cc(C)c(=O)n(CCCCCCn3c(=O)c(C)cn([C@@H]4O[C@H](CO[Si](C)(C)C(C)(C)C)[C@@]5(OS(=O)(=O)C=C5N)[C@H]4O[Si](C)(C)C(C)(C)C)c3=O)c2=O)C[C@H]1O)Oc1ccccc1 (stereo partly drawn) in your answer.
A: 6.03

----------
System: MT4
Assay: Inhibition of HIV-1 induced cytopathicity against MT-4 cell
Assay type: functional, cell-based
Conditions: Homo sapiens
quantityKind: pEC50
pEC50 field: float, defined as -log10 of concentration (mol/L).

Q: Name the recorded pEC50 of the item COC(=O)C(C)NP(=O)(OC[C@H]1C=C[C@@H](n2cc(C)c(=O)n(CCCn3c(=O)c(C)cn([C@@H]4O[C@H](CO[Si](C)(C)C(C)(C)C)[C@@]5(OS(=O)(=O)C=C5N)[C@H]4O[Si](C)(C)C(C)(C)C)c3=O)c2=O)O1)Oc1ccccc1 (some centres not stated) in your answer.
A: 6.74

----------
Tested on: MT4
Test: Inhibition of HIV-1 induced cytopathicity against MT-4 cell
Type: functional, cell-based
Details: Homo sapiens
quantityKind: EC50 (nM)
Respond numerically; units are nM and should not be typed.

| compound | measValue |
| --- | --- |
| Cc1cn([C@@H]2O[C@H](CO[Si](C)(C)C(C)(C)C)[C@@]3(OS(=O)(=O)C=C3N)[C@H]2O[Si](C)(C)C(C)(C)C)c(=O)n(CC#Cc2cn([C@@H]3C[C@@H](O)[C@H](CO)O3)c(=O)[nH]c2=O)c1=O | 440 |

Q: Name the recorded EC50 of the item Cc1cn([C@@H]2C[C@@H](N=[N+]=[N-])[C@H](CO)O2)c(=O)n(CCOCCn2c(=O)c(C)cn([C@@H]3O[C@H](CO[Si](C)(C)C(C)(C)C)[C@@]4(OS(=O)(=O)C=C4N)[C@H]3O[Si](C)(C)C(C)(C)C)c2=O)c1=O in your answer.
A: 310

Q: Name the recorded EC50 of the item COC(=O)C(C)NP(=O)(OC[C@@H]1O[C@H](n2cc(C)c(=O)n(CCCn3c(=O)c(C)cn([C@@H]4O[C@H](CO[Si](C)(C)C(C)(C)C)[C@@]5(OS(=O)(=O)C=C5N)[C@H]4O[Si](C)(C)C(C)(C)C)c3=O)c2=O)C[C@H]1N=[N+]=[N-])Oc1ccccc1 (stereo not given in full) in your answer.
A: 3200

Q: Name the recorded EC50 of the item COC(=O)C(C)NP(=O)(OC[C@H]1C=C[C@@H](n2cc(C)c(=O)n(CCCCCCn3c(=O)c(C)cn([C@@H]4O[C@H](CO[Si](C)(C)C(C)(C)C)[C@@]5(OS(=O)(=O)C=C5N)[C@H]4O[Si](C)(C)C(C)(C)C)c3=O)c2=O)O1)Oc1ccccc1 (stereo not given in full) in your answer.
A: 570
